molecular target: UniProt C0H4X1; assay: IC50 for competition of protein binding to Kinobeads; details: assay detail: Kinobeads competition in P. falciparum blood-stage lysate;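 further: native unpurified kinases from lysate captured on beads bearing immobilized kinase inhibitors, with bead-bound kinases quantified by mass spectrometry across compound doses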
property.label: IC50

>>> df
                                   compound    assay_target  test_result
0  O=c1[nH]c2ccc(Cl)cc2c(NC2CN3CCC2CC3)c1-c1nc2ccccc2[nH]1 (stereo unspecified) [CHIR-124]  UniProt C0H4X1      > 20 µM

* * *

target: UniProt Q8IEE5; assay: IC50 for competition of protein binding to Kinobeads; settings: assay detail: Kinobeads competition in P. falciparum blood-stage lysate
property.label: IC50

In [3]: df
Out[3]:
                                   compound  property_label  test_result
0  O=c1[nH]c2ccc(Cl)cc2c(NC2CN3CCC2CC3)c1-c1nc2ccccc2[nH]1 (stereo unspecified)            IC50      > 20 µM

Measured values drawn from the supplement of paper PMC13386468 for this set.
